Test system: HepG2
Experiment: Inhibition of human recombinant BMP6-stimulated hepcidin mRNA expression in human HepG2 cells after 6 hrs by qRT-PCR analysis
Format: functional, cell-based
Conditions: HepG2, 6 h
Entries annotated with measured IC50
Express the result in µM but write the number alone.

// returns IC50 for Cc1[nH]nc(C2CC2)c1-c1ccc2c(-c3ccc[nH]3)n[nH]c2c1 with HepG2; value = 3.1

// returns IC50 for CC(=O)Nc1n[nH]c2cc(-c3c(C4CC4)n[nH]c3C)ccc12 with HepG2; value = 0.41

// returns IC50 for CNC(=O)Nc1cc(-c2c(C3CC3)n[nH]c2C)cc2[nH]ncc12 with HepG2; value = 0.34

// returns IC50 for Cc1[nH]nc(C2CC2)c1-c1cc(NC(=O)c2ccc(N3CCN(C)CC3)cc2)c2cn[nH]c2c1 with HepG2; value = 1.9

// returns IC50 for Cc1[nH]nc(C2CC2)c1-c1ccc2c(-c3ccc(N4CCNCC4)nc3)n[nH]c2c1 with HepG2; value = 0.17

***
// returns IC50 for CNC(=O)c1n[nH]c(C)c1-c1cc(NC(=O)OC)c2cn[nH]c2c1 with HepG2; value = 2

// returns IC50 for COC(=O)Nc1cc(-c2c(C(=O)OC)n[nH]c2C)cc2[nH]ncc12 with HepG2; value = 0.13

// returns IC50 for Cc1[nH]nc(C2CC2)c1-c1cc(NS(C)(=O)=O)c2cn[nH]c2c1 with HepG2; value = 1.2

// returns IC50 for CNC(=O)c1cc(-c2c(C3CC3)n[nH]c2C)cc2[nH]ncc12 with HepG2; value = 2.2

Provenance of the data: ChEMBL document CHEMBL4118098
